Taken from patent US20220380368A1.

- assay procedure: Mouse PK studies after oral and IV dosing
- Type: in vivo
- particulars: in vivo, po, 5 mg/kg
measurement kind: Cmax

[Q] Which value of Cmax has been reported for C[C@H]1CC2(CCN(c3ccc(C(=O)N4CCC(N5Cc6cc7c(cc6C5)C(=O)N(C5CCC(=O)NC5=O)C7=O)CC4)cc3)CC2)CN1c1ccc(C#N)c(Cl)c1 (stereo partly shown) in the records?
[A] 9120 ng/mL

====

- assay procedure: Mouse PK studies after oral and IV dosing
- Format: in vivo
- particulars: in vivo, iv, 1 mg/kg, IV, dose 1 mg/kg, read-out: IV Cl (converted)
measurement kind: clearance (mL/min/kg)
Quick reminder: number only, in mL/min/kg, skip the unit.

[Q] Field request: clearance | item: C[C@H]1CC2(CCN(c3ccc(C(=O)N4CCC(N5CCN(c6ccc7c(c6)C(=O)N(C6CCC(=O)NC6=O)C7=O)CC5)CC4)nn3)CC2)CN1c1ccc(C#N)c(Cl)c1 (some centres unmarked) [Cpd. No. 499]
[A] 8.17

[Q] I am curious: what clearance value has been reported for C[C@H]1CC2(CCN(c3ccc(C(=O)N4CCN(C5CCN(c6cc7c(cc6F)C(=O)N(C6CCC(=O)NC6=O)C7=O)CC5)CC4)cc3)CC2)CN1c1ccc(C#N)c(Cl)c1 (some centres unmarked) [Cpd. No. 540] ?
[A] 2

[Q] Any idea what its clearance is? The molecule is C[C@H]1CC2(CCN(c3cnc(C(=O)N4CCC(N5CCN(c6ccc7c(c6)C(=O)N(C6CCC(=O)NC6=O)C7=O)CC5)CC4)cn3)CC2)CN1c1ccc(C#N)c(Cl)c1 (some centres unmarked) [Cpd. No. 497]
[A] 18.8

[Q] Please look up its clearance: C[C@H]1CC2(CCN(c3ccc(C(=O)N4CCC(CN5CCN(c6cc7c(cc6F)C(=O)N(C6CCC(=O)NC6=O)C7=O)CC5)CC4)nn3)CC2)CN1c1ccc(C#N)c(Cl)c1 (some centres unmarked) [Cpd. No. 490]
[A] 3

[Q] Need clearance, item C[C@H]1CC2(CCN(c3ccc(C(=O)N4CCN(CC5CN(c6cc7c(cc6F)C(=O)N(C6CCC(=O)NC6=O)C7=O)C5)CC4)cc3)CC2)CN1c1ccc(C#N)c(Cl)c1 (some centres unmarked) [Cpd. No. 502]
[A] 3.33

[Q] For C[C@H]1CC2(CCN(c3ccc(C(=O)N4CCC(CN5CCN(c6ccc7c(c6)C(=O)N(C6CCC(=O)NC6=O)C7=O)CC5)CC4)cc3)CC2)CN1c1ccc(C#N)c(Cl)c1 (some centres unmarked) [Cpd. No. 442] , what is its reported clearance?
[A] 2.83

[Q] Which clearance is reported for this molecule? C[C@H]1CC2(CCN(c3ccc(C(=O)N4CCN(C5CN(c6ccc7c(c6)C(=O)N(C6CCC(=O)NC6=O)C7=O)C5)CC4)cc3F)CC2)CN1c1ccc(C#N)c(Cl)c1 (some centres unmarked) [Cpd. No. 510]
[A] 3.33

[Q] Suppose we examine the molecule C[C@H]1CC2(CCN(c3cnc(C(=O)N4CCC(CN5Cc6cc7c(cc6C5)C(=O)N(C5CCC(=O)NC5=O)C7=O)CC4)cn3)CC2)CN1c1ccc(C#N)c(Cl)c1 (some centres unmarked) [Cpd. No. 495] ; what clearance value has been reported?
[A] 16.2

[Q] Consider the molecule C[C@H]1CC2(CCN(c3ccc(C(=O)N4CCC(N5CCN(c6ccc7c(c6)C(=O)N(C6CCC(=O)NC6=O)C7=O)CC5)CC4)cc3)CC2)CN1c1ccc(C#N)c(Cl)c1 (some centres unmarked) [Cpd. No. 443] and give its measured clearance.
[A] 2

[Q] Name the recorded clearance for C[C@H]1CC2(CCN(c3ccc(C(=O)N4CCN(CC5CCN(c6cc7c(cc6F)C(=O)N(C6CCC(=O)NC6=O)C7=O)CC5)CC4)nn3)CC2)CN1c1ccc(C#N)c(Cl)c1 (some centres unmarked) [compound 588] .
[A] 13.8

[Q] GET /values?readout=clearance&item= C[C@H]1CC2(CCN(c3ccc(C(=O)N4CCN(C5CCN(c6ccc7c(c6)C(=O)N(C6CCC(=O)NC6=O)C7=O)CC5)CC4)cc3F)CC2)CN1c1ccc(C#N)c(Cl)c1 (some centres unmarked) [Cpd. No. 521]
[A] 5
